tested target: KRAS WT (Homo sapiens (Human), UniProt P01116+P62937)
Sequence (P01116 other isoform, or with tags, fused parts or gaps): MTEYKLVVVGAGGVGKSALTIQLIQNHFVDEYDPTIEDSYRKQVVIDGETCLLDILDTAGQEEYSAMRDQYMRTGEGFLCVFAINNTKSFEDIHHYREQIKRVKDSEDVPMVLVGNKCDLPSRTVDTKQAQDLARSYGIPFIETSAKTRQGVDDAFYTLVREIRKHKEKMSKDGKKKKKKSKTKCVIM
Sequence (P62937 whole entry): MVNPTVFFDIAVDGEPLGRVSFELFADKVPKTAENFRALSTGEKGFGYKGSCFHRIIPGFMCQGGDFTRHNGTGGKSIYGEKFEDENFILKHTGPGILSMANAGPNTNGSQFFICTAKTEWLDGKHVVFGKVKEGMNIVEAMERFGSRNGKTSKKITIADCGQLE
test protocol: Ras-Raf disruption/FRET/MOA assay (BRAF RBD, Cyclophilin A)
Format: biochemical
test settings: read-out: KRAS WT FRET data IC50
reported property: IC50

| structure | result |
| --- | --- |
| CCn1c(-c2cccnc2[C@H](C)OC)c2c3cc(ccc31)-c1csc(n1)C[C@H](NC(=O)[C@H](C(C)C)N(C)C(=O)N1C[C@H](C)N(C)C[C@H]1C)C(=O)N1CCC[C@H](N1)C(=O)OCC(C)(C)C2 | 1000 to 10000 nM |
| CCn1c(-c2cccnc2[C@H](C)OC)c2c3cc(ccc31)-c1cc(O)cc(c1)C[C@H](NC(=O)[C@H]1C[C@@H]1C)C(=O)N1CCC[C@H](N1)C(=O)OCC(C)(C)C2 | 1000 to 10000 nM |

Next item in the queue.
For this molecule ( CCn1c(-c2cccnc2[C@H](C)OC)c2c3cc(ccc31)-c1csc(n1)C[C@H](NC(=O)[C@H](C(C)C)N(C)C(=O)N(C)C1CN(C)C1)C(=O)N1CCC[C@H](N1)C(=O)OCC(C)(C)C2 ), measured IC50 is 100 to 1000 nM
